Tested on: S. aureus 15877
Assay: Antibiotic MIC by microdilution with or without sub-MIC polymer
Assay type: cell-based, Staphylococcus aureus
Conditions: +½ MIC (3.12 μM) C12(5-ene)KKNC12KNH2
Listed here: items and their measured Antibiotic MIC.
property: Antibiotic MIC

smiles_notation: Cc1onc(-c2ccccc2)c1C(=O)N[C@@H]1C(=O)N2[C@@H]1SC(C)(C)[C@@H]2C(=O)O
property: Antibiotic MIC
result: 16 µg/mL

smiles_notation: CC[C@H]1OC(=O)[C@H](C)[C@@H](O[C@H]2C[C@@](C)(OC)[C@@H](O)[C@H](C)O2)[C@H](C)[C@@H](O[C@@H]2O[C@H](C)C[C@H](N(C)C)[C@H]2O)[C@](C)(O)C[C@@H](C)C(=O)[C@H](C)[C@@H](O)[C@]1(C)O
property: Antibiotic MIC
result: >512 µg/mL

smiles_notation: CC1(C)S[C@@H]2[C@H](NC(=O)Cc3ccccc3)C(=O)N2[C@H]1C(=O)O
property: Antibiotic MIC
result: 8 µg/mL

smiles_notation: CN(C)[C@@H]1C(O)=C(C(N)=O)C(=O)[C@@]2(O)C(O)=C3C(=O)c4c(O)cccc4[C@@](C)(O)[C@H]3C[C@@H]12
property: Antibiotic MIC
result: 0.5 to 1 µg/mL

smiles_notation: O=C(O)c1cn(C2CC2)c2cc(N3CCNCC3)c(F)cc2c1=O
property: Antibiotic MIC
result: 4 µg/mL

smiles_notation: CCN1CCN(C(=O)N[C@@H](C(=O)N[C@@H]2C(=O)N3[C@@H]2SC(C)(C)[C@@H]3C(=O)O)c2ccccc2)C(=O)C1=O
property: Antibiotic MIC
result: 8 to 16 µg/mL

----------
Tested on: E. coli 16329
Type: cell-based, Escherichia coli
Conditions: E. coli U-16329; +½ MIC C12K(NC8K)5NH2

smiles_notation: O=C(O)c1cn(C2CC2)c2cc(N3CCNCC3)c(F)cc2c1=O
units_symbol: µg/mL
censor_symbol: =
Antibiotic MIC: 32

smiles_notation: Cc1onc(-c2ccccc2)c1C(=O)N[C@@H]1C(=O)N2[C@@H]1SC(C)(C)[C@@H]2C(=O)O
units_symbol: µg/mL
censor_symbol: >
Antibiotic MIC: 512

smiles_notation: CCN1CCN(C(=O)N[C@@H](C(=O)N[C@@H]2C(=O)N3[C@@H]2SC(C)(C)[C@@H]3C(=O)O)c2ccccc2)C(=O)C1=O
units_symbol: µg/mL
censor_symbol: =
Antibiotic MIC: 128

smiles_notation: CN(C)[C@@H]1C(O)=C(C(N)=O)C(=O)[C@@]2(O)C(O)=C3C(=O)c4c(O)cccc4[C@@](C)(O)[C@H]3C[C@@H]12
units_symbol: µg/mL
censor_symbol: =
Antibiotic MIC: 64

smiles_notation: CC[C@H]1OC(=O)[C@H](C)[C@@H](O[C@H]2C[C@@](C)(OC)[C@@H](O)[C@H](C)O2)[C@H](C)[C@@H](O[C@@H]2O[C@H](C)C[C@H](N(C)C)[C@H]2O)[C@](C)(O)C[C@@H](C)C(=O)[C@H](C)[C@@H](O)[C@]1(C)O
units_symbol: µg/mL
censor_symbol: =
Antibiotic MIC: 32

smiles_notation: CC1(C)S[C@@H]2[C@H](NC(=O)Cc3ccccc3)C(=O)N2[C@H]1C(=O)O
units_symbol: µg/mL
censor_symbol: =
Antibiotic MIC: 256

----------
Listed here: items and their measured Antibiotic MIC.
Test system: E. coli 14182
Assay: Antibiotic MIC by microdilution with or without sub-MIC polymer
Type: cell-based, Escherichia coli
Conditions: no polymer (None), Table 14

smiles_notation: CN(C)[C@@H]1C(O)=C(C(N)=O)C(=O)[C@@]2(O)C(O)=C3C(=O)c4c(O)cccc4[C@@](C)(O)[C@H]3C[C@@H]12
study_target: E. coli 14182
Antibiotic MIC: 32 to 64 µg/mL
--
smiles_notation: O=C(O)c1cn(C2CC2)c2cc(N3CCNCC3)c(F)cc2c1=O
study_target: E. coli 14182
Antibiotic MIC: <0.03 µg/mL
--
smiles_notation: CCN1CCN(C(=O)N[C@@H](C(=O)N[C@@H]2C(=O)N3[C@@H]2SC(C)(C)[C@@H]3C(=O)O)c2ccccc2)C(=O)C1=O
study_target: E. coli 14182
Antibiotic MIC: >512 µg/mL
--
smiles_notation: Cc1onc(-c2ccccc2)c1C(=O)N[C@@H]1C(=O)N2[C@@H]1SC(C)(C)[C@@H]2C(=O)O
study_target: E. coli 14182
Antibiotic MIC: >512 µg/mL
--
smiles_notation: CC1(C)S[C@@H]2[C@H](NC(=O)Cc3ccccc3)C(=O)N2[C@H]1C(=O)O
study_target: E. coli 14182
Antibiotic MIC: >512 µg/mL

----------
Tested on: E. coli 16327
Test: microbe, parasite or virus in culture
Conditions: E. coli 16327; no polymer (None), Table 10
Listed here: items and their measured Antibiotic MIC.
property: Antibiotic MIC

compound: O=C(O)c1cn(C2CC2)c2cc(N3CCNCC3)c(F)cc2c1=O [Ciprofloxacin, ciprofloxacin]
result: >512 µg/mL
--
compound: CCN1CCN(C(=O)N[C@@H](C(=O)N[C@@H]2C(=O)N3[C@@H]2SC(C)(C)[C@@H]3C(=O)O)c2ccccc2)C(=O)C1=O [Piperacillin, piperacillin]
result: 512 µg/mL
--
compound: CC1(C)S[C@@H]2[C@H](NC(=O)Cc3ccccc3)C(=O)N2[C@H]1C(=O)O [Penicillin G, penicillin G]
result: >512 µg/mL
--
compound: Cc1onc(-c2ccccc2)c1C(=O)N[C@@H]1C(=O)N2[C@@H]1SC(C)(C)[C@@H]2C(=O)O [Oxacillin, oxacillin]
result: >512 µg/mL

----------
Listed here: items and their measured Antibiotic MIC.
Test system: S. aureus 17314
Assay: Antibiotic MIC by microdilution with or without sub-MIC polymer
Type: cell-based, Staphylococcus aureus
Conditions: S. aureus 17314; no polymer (None), Table 9

compound: CC1(C)S[C@@H]2[C@H](NC(=O)Cc3ccccc3)C(=O)N2[C@H]1C(=O)O [Penicillin G, penicillin G]
study_target: S. aureus 17314
Antibiotic MIC / µg/mL: 8

compound: CN(C)[C@@H]1C(O)=C(C(N)=O)C(=O)[C@@]2(O)C(O)=C3C(=O)c4c(O)cccc4[C@@](C)(O)[C@H]3C[C@@H]12 [Tetracycline, tetracycline]
study_target: S. aureus 17314
Antibiotic MIC / µg/mL: 0.25

compound: CCN1CCN(C(=O)N[C@@H](C(=O)N[C@@H]2C(=O)N3[C@@H]2SC(C)(C)[C@@H]3C(=O)O)c2ccccc2)C(=O)C1=O [Piperacillin, piperacillin]
study_target: S. aureus 17314
Antibiotic MIC / µg/mL: 32

compound: Cc1onc(-c2ccccc2)c1C(=O)N[C@@H]1C(=O)N2[C@@H]1SC(C)(C)[C@@H]2C(=O)O [Oxacillin, oxacillin]
study_target: S. aureus 17314
Antibiotic MIC / µg/mL: 0.25

compound: O=C(O)c1cn(C2CC2)c2cc(N3CCNCC3)c(F)cc2c1=O [Ciprofloxacin, ciprofloxacin]
study_target: S. aureus 17314
Antibiotic MIC / µg/mL: 64

compound: CC[C@H]1OC(=O)[C@H](C)[C@@H](O[C@H]2C[C@@](C)(OC)[C@@H](O)[C@H](C)O2)[C@H](C)[C@@H](O[C@@H]2O[C@H](C)C[C@H](N(C)C)[C@H]2O)[C@](C)(O)C[C@@H](C)C(=O)[C@H](C)[C@@H](O)[C@]1(C)O [Erythromycin, erythromycin]
study_target: S. aureus 17314
Antibiotic MIC / µg/mL: 1

----------
Listed here: items and their measured Antibiotic MIC.
Tested on: S. maltophila 748
Test: Antibiotic MIC by microdilution with or without sub-MIC polymer
Format: cell-based, Stenotrophomonas maltophila
Conditions: +⅓ MIC (2.1 μM) C12K(KNC12K)3NH2

smiles_notation: Cc1onc(-c2ccccc2)c1C(=O)N[C@@H]1C(=O)N2[C@@H]1SC(C)(C)[C@@H]2C(=O)O
units_symbol: µg/mL
Antibiotic MIC: 512
//
smiles_notation: CN(C)[C@@H]1C(O)=C(C(N)=O)C(=O)[C@@]2(O)C(O)=C3C(=O)c4c(O)cccc4[C@@](C)(O)[C@H]3C[C@@H]12
units_symbol: µg/mL
Antibiotic MIC: 64
//
smiles_notation: CCN1CCN(C(=O)N[C@@H](C(=O)N[C@@H]2C(=O)N3[C@@H]2SC(C)(C)[C@@H]3C(=O)O)c2ccccc2)C(=O)C1=O
units_symbol: µg/mL
Antibiotic MIC: 32
//
smiles_notation: CC[C@H]1OC(=O)[C@H](C)[C@@H](O[C@H]2C[C@@](C)(OC)[C@@H](O)[C@H](C)O2)[C@H](C)[C@@H](O[C@@H]2O[C@H](C)C[C@H](N(C)C)[C@H]2O)[C@](C)(O)C[C@@H](C)C(=O)[C@H](C)[C@@H](O)[C@]1(C)O
units_symbol: µg/mL
Antibiotic MIC: 512

From: patent US20180153995A1
